system: SF-539 CNS; assay: NCI-60 one-dose screen, 48 h; settings: 10 µM unless noted
This is part of a sample that, as a whole, favours compounds with a hit. Of some 83,000 tested, about 20% had one in any assay. Active and inactive are the calls of the source. The calls were made as follows: active = growth percent below 10; inactive = the rest.
Give one outcome, nothing more. List: active, inactive

Worked examples follow.
CC(=O)c1c([Si](C)(C)C)c2cc(C#N)ccn2c1C(=O)c1ccc(Br)cc1 inactive
Oc1[nH]c2ccc(Cl)cc2c1N=Nc1nc(N=Nc2c(O)[nH]c3ccc(Cl)cc23)nc(N2CCOCC2)n1 inactive
CNC(=O)c1cc(-c2ccc(NC(=S)Nc3cccc(C(F)(F)F)c3)cc2)nc2cccnc12 inactive
Cc1ccc(C(=O)Nc2ccc(CNCCN3CCOCC3)c(C(F)(F)F)c2)cc1C#Cc1cnc2cccnn12 active
C[C@H](Nc1ncnc2ccc(-c3cnc(Cl)c(NS(C)(=O)=O)c3)cc12)c1ccccc1 active
CC[C@]12C=CCN3CC[C@@]4(c5ccc(OC)cc5N(C)[C@H]4[C@@](O)(C(=O)OC)[C@@H]1OC(=O)CCN1CCc4ccccc4C1)[C@@H]32 inactive
NS(=O)(=O)c1ccc(CCn2c(-c3ccc(C(=O)O)cc3)nc(-c3ccccc3)c2-c2ccccc2)cc1 inactive
O=C(CCCCCCNC(=O)C(O)(O)C(F)(F)F)Nc1ccc(Cl)cc1 inactive

Next:
-- ask Short answer needed: outcome of this test for CCOC(=O)c1c(N)c(C#N)cn1Cc1ccc(Cl)cc1Cl ?
-- reply inactive

---

test system: MCF7 breast; experiment: NCI-60 one-dose screen, 48 h; settings: 10 µM unless noted
About 83,000 compounds went through this panel and 20% of them were active in at least one assay; those are over-represented in the sample as a whole. Activity calls are given as the source filed them. The calls were made as follows: active = growth percent below 10; inactive = the rest.
Give one outcome, nothing more. List: 1 for active, -1 for inactive

Worked examples follow.
COMPOUND	ASSIGNED CATEGORY
O=C1[C@@H]2Cc3c([nH]c4ccccc34)[C@@H](c3ccc(Cl)cc3)N2C(=O)CN1C1CCN(Cc2c(F)cccc2F)CC1	-1
Cc1ccc2c(n1)C(=O)C(Cl)=C(Nc1ccc(C(=O)OC(C)(C)C)cc1)C2=O	-1
COc1cc(/C=N\NC(=O)c2ccc3nc(-c4ccc(Br)cc4)[nH]c3c2)cc(OC)c1OC	1
O=C(/C=C/c1ccccc1)c1cccc(O)c1	-1
N#Cc1c(-c2ccc(F)cc2)cc(-c2c[nH]c3ccccc23)nc1-c1c[nH]c2ccccc12	-1

Next:
-- ask Short answer needed: outcome of this test for CN1CCN(CC#CCn2c3c(c4ccccc42)C[C@]2(C)[C@H]4CC=C5[C@@H]6CC(C)(C)CC[C@]6(C(=O)N6CCOCC6)CC[C@@]5(C)[C@]4(C)CC[C@H]2C3(C)C)CC1 ?
-- reply 1

---

Tested on: 786-0 renal
Assay: NCI-60 one-dose screen, 48 h (100 = growth as untreated, 0 = no growth, -100 = all killed)
Conditions: 10 µM unless noted
Protocol: Cells are grown in 96 well plates and exposed to the test compound for 48 hours. Compounds are tested at a single concentration, which is 10^-5 M for most compounds. The reported endpoint is percent growth (GI% or GIPRCNT), where numbers from 0 - 100% represent growth inhibition, and numbers from -100% - 0 represent cell death. For example, a value of 40 represents 60% growth inhibition. A value of 0 means no net growth occurred over the course of the experiment. […]
The panel holds about 83,000 compounds, 20% with a hit somewhere; the sample as a whole holds those more often.
RECORDED ENDPOINT: growth (%)
Numbers only, in %.

Examples with answers:
COMPOUND	growth (%)
O=C(CCCCCCN1CC(=O)N2[C@@H](C3CC3)c3[nH]c4ccccc4c3C[C@H]2C1=O)NO	108
COc1ccc2[nH]cc(-c3nn4cc(-c5ccncc5)nc4s3)c2c1	79.8
O=C(CCCCCCNC(=O)c1csc(Br)n1)NO	72.4
COc1cc(C(C)=C(c2ccc(OCCN(C)C)cc2)c2ccc(OCCN(C)C)cc2)ccc1F	94.3
O=C(/C=C/c1csc(Br)n1)NO	52.3
COc1ccc(C(=O)c2c(N)c(C#N)cn2-c2ccc(Cl)cc2Cl)cc1	103

Hi! Can you tell me growth for each of these compounds?
1. CCN(CC)c1ccc(/C=N/NC(=O)c2ccc(NS(C)(=O)=O)cc2)c(O)c1
2. COc1cc(C(=O)c2cc(C(C)=O)c3ccc(C)cn23)cc(OC)c1OC
3. C(=N\Nc1nc(N/N=C/c2ccc3c(c2)OCO3)nc(N2CCCCC2)n1)/c1ccc2c(c1)OCO2
4. O=C(CSc1cc[n+](CCCCO)c2ccccc12)n1ccc2ccccc21

-- reply
1: 1.77; 2: 50.5; 3: 86.6; 4: 108

Hi! Can you tell me growth for each of these compounds?
1. CN1CCN(Cc2ccc(NC(=O)c3cncc(C#Cc4cnc5ccc(N6CCOCC6)nn45)c3)cc2C(F)(F)F)CC1
2. CC(C)Sc1nc(-c2ccccc2)c(C#N)c(N2CCOCC2)n1
3. CN1CCN(c2ccc(Nc3nc(NCCCNS(=O)(=O)c4ccccc4)c4sccc4n3)cc2)CC1
4. COc1ccc2c(c1)c(/C=N/Nc1ccnc3cc(Cl)ccc13)cn2C
5. N#Cc1cccc(-c2cc(-c3ccc4c(c3)OCCO4)[nH]n2)c1
6. Cn1c2nc3ccccc3c-2cc2ccccc21

-- reply
1. -80.7
2. 11.9
3. 7.25
4. -81.3
5. 63.4
6. 38

Hi! Can you tell me growth for each of these compounds?
1. C#CCOc1ccc(-c2csc(NC(=O)C=C)n2)cc1NS(=O)(=O)c1cccc2c(N(C)C)cccc12
2. Clc1ccc2[nH]cc(-c3nn4cc(-c5cccnc5)nc4s3)c2c1

-- reply
1: 8.71; 2: 113

Hi! Can you tell me growth for each of these compounds?
1. CC(=O)/C(N=Nc1ccc2oc(=O)ccc2c1)=C(\C)O
2. N#C/C(=C\c1ccc(-c2ccc(Cl)c(Cl)c2)o1)C(=O)Nc1ncc(Cc2ccc(Cl)cc2)s1

-- reply
[37.5, 11.4]

Hi! Can you tell me growth for each of these compounds?
1. O=S1SC(c2ccccc2)=NN1c1cc(F)cc(F)c1 (centres undefined)
2. Cc1cc2nc(C(Cl)Cl)nc(-c3ccc(S(=O)(=O)N(C)C)cc3)n2n1
3. COc1ccccc1N1CCN(C2=C(Cl)C(=O)c3ncccc3C2=O)CC1
4. CC/C(=C(/c1ccc(Cl)cc1)c1ccc(OCCN)cc1)c1ccccc1
5. CC(O)c1cccc(/C(N)=N/C(N)=N/c2nc3ccccc3s2)c1 (centres undefined)
6. N#Cc1c(-c2cccs2)cc(-c2cnccn2)nc1SCC(=O)N/N=C/c1ccc(Cl)cc1

-- reply
1. 34.9
2. 94.5
3. 107
4. 87.9
5. 101
6. 93.9

Hi! Can you tell me growth for each of these compounds?
1. COc1cc2oc(-c3cccc(NC(=O)[C@@H](N)C(C)C)c3)cc(=O)c2c(OC)c1OC
2. Cc1ccc(S(=O)(=O)NCCCNc2nc(Nc3ccc(N4CCN(C)CC4)cc3)nc3ccsc23)cc1

-- reply
1. 87.1
2. -26.7

Hi! Can you tell me growth for each of these compounds?
1. CN1CCN(Cc2ccc(/C=N/Nc3ccnc4cc(Cl)ccc34)cc2)CC1
2. Oc1[nH]c2ccc(Cl)cc2c1N=Nc1nc(N=Nc2c(O)[nH]c3ccc(Cl)cc23)nc(N2CCCCC2)n1
3. Brc1ccc2[nH]cc(-c3nn4cc(-c5nccs5)nc4s3)c2c1
4. CCN(CC)S(=O)(=O)c1ccc(-c2nc(C(Cl)Cl)nc3cc(C)nn23)cc1
5. CCOP(=O)(OCC)OC[C@]12CCC(C)(C)C[C@H]1C1=CC[C@@H]3[C@@]4(C)CC[C@H](OP(=O)(OCC)OCC)C(C)(C)[C@@H]4CC[C@@]3(C)[C@]1(C)CC2

-- reply
77.7
66
-74.5
92.5
66.3

Hi! Can you tell me growth for each of these compounds?
1. COc1ccc(/C=N\NC(=O)c2cnn(CC(O)c3ccccc3)c2N)cc1OCc1ccc(Cl)cc1 (centres undefined)
2. N#Cc1c(-c2cccs2)cc(-c2cnccn2)nc1SCC(=O)N/N=C/c1cccs1
3. C#CCN(C)CCCOc1ccc(NCc2ccc(/C=C/C(=O)NO)cc2)cc1Cl
4. COc1ccccc1Cn1cc(C#N)c(N)c1C(=O)c1ccc(Br)cc1

-- reply
[96.2, 16.6, -2.14, 102]

Hi! Can you tell me growth for each of these compounds?
1. CC(C)(O)c1cncc(-c2ccc3ncc(C#N)c(N4CCc5cc(F)c(Cl)cc54)c3c2)c1
2. CN1CCN(Cc2ccc(NC(=O)c3cncc(C#Cc4cnc5ccc(OC6CCOCC6)nn45)c3)cc2C(F)(F)F)CC1

-- reply
1. 8.75
2. -89.1

---

tested on: UACC-62 melanoma; experiment: NCI-60 one-dose screen, 48 h (100 = growth as untreated, 0 = no growth, -100 = all killed); details: 10 µM unless noted
The panel holds about 83,000 compounds, 20% with a hit somewhere; the sample as a whole holds those more often.
growth of 70% or higher: Satisfied. Under 70%: Not satisfied.

-- ask Given O=C(CCCCCC/C=C\c1csc(Br)n1)NO , state whether its growth is at least 70%.
-- reply Satisfied

-- ask Further, for O=C(CCCCCCNC(=O)C(O)(O)C(F)(F)F)Nc1ccc(Cl)cc1 ?
-- reply Not satisfied

-- ask Further, for CNC(=O)c1cc(-n2ccc3cc(NC(=O)Nc4ccc(N5CCN(C)CC5)c(C(F)(F)F)c4)ccc32)ccn1 ?
-- reply Satisfied

-- ask Further, for O=C1Nc2ccc(F)cc2/C1=C\C(=O)c1ccc(NS(=O)(=O)c2ccccc2)cc1 ?
-- reply Satisfied

-- ask Further, for O=C(COc1ccc(/C=C2\C(=O)Nc3ccc(F)cc32)cc1)Nc1ccccc1 ?
-- reply Satisfied

The values you see were collected from PubChem BioAssay (NCI).
